- PROTOCOL_DETAILS: Oral PK profiles of conjugated oxymorphone in rats (released oxymorphone in plasma by LC-MS/MS)
- Assay type: in vivo, Sprague-Dawley rats
- STATED_CONDITIONS: conjugate equivalent to 2 mg/kg freebase oxymorphone, released oxymorphone in plasma
PROPERTY: AUC
Please don't drop the unit; write it after the number.

CN1CC[C@]23c4c5ccc(O)c4O[C@H]2C(OC(=O)/C=C/c2ccccc2)=CC[C@@]3(O)[C@H]1C5 [6-Cinnamate-OM] ... 28.0 ng·h/mL

Data point: CC(C(=O)Oc1ccc2c3c1O[C@H]1C(=O)CC[C@@]4(O)[C@@H](C2)N(C)CC[C@]314)c1cccc(C(=O)c2ccccc2)c1 (some centres unmarked) ; AUC = 49.7 ng·h/mL

====

- PROTOCOL_DETAILS: Oral PK profiles of conjugated oxymorphone in rats (released oxymorphone in plasma by LC-MS/MS)
- Assay type: in vivo, Sprague-Dawley rats
- STATED_CONDITIONS: 2 mg/kg oxymorphone equivalent, relative to the OM control
Could you label it 1.0 if measured %-Cmax is 60% or higher, and 0.0 otherwise?

Use the examples below as a reference point.
COc1ccc(C(=O)Oc2ccc3c4c2O[C@H]2C(=O)CC[C@@]5(O)[C@@H](C3)N(C)CC[C@]425)cc1 ... 1.0
CN1CC[C@]23c4c5ccc(OC(=O)/C=C/c6ccccc6)c4O[C@H]2C(OC(=O)/C=C/c2ccccc2)=CC[C@@]3(O)[C@H]1C5 [3,6-(Cinnamate)2-OM] ... 0.0
CC(C(=O)Oc1ccc2c3c1O[C@H]1C(=O)CC[C@@]4(O)[C@@H](C2)N(C)CC[C@]314)c1cccc(Oc2ccccc2)c1 (stereo partly shown) ... 0.0
CN1CC[C@]23c4c5ccc(O)c4O[C@H]2C(OC(=O)c2ccccc2)=CC[C@@]3(O)[C@H]1C5 [Conjugate 6-Bz-OM] ... 1.0
CC(=O)Oc1ccccc1C(=O)Oc1ccc2c3c1OC1C(=O)CCC4(O)C(C2)N(C)CCC314 (stereo not shown) ... 1.0
COc1cc(C(=O)Oc2ccc3c4c2O[C@H]2C(=O)CC[C@@]5(O)[C@@H](C3)N(C)CC[C@]425)ccc1O [3-Vanillate-OM] ... 1.0
COc1ccc(C(=O)OC2=CCC3(O)C4Cc5ccc(OC(=O)c6ccc(OC)cc6)c6c5C3(CCN4C)C2O6)cc1 (stereo not shown) ... 1.0
COc1ccc(C(=O)OC2=CC[C@@]3(O)[C@H]4Cc5ccc(O)c6c5[C@@]3(CCN4C)[C@H]2O6)cc1 ... 1.0
CN1CC[C@]23c4c5ccc(OC(=O)/C=C/c6ccccc6)c4O[C@H]2C(=O)CC[C@@]3(O)[C@H]1C5 [3-Cinnamate-OM] ... 1.0
CN1CC[C@]23c4c5ccc(OC(=O)c6ccccc6O)c4O[C@H]2C(=O)CC[C@@]3(O)[C@H]1C5 ... 1.0

Check if %-Cmax >= 60% (inclusive). Item: CN1CC[C@]23c4c5ccc(O)c4O[C@H]2C(OC(=O)c2cccc(N)c2)=CC[C@@]3(O)[C@H]1C5
0.0

Assess whether reported %-Cmax for CC(C(=O)Oc1ccc2c3c1O[C@H]1C(=O)CC[C@@]4(O)[C@@H](C2)N(C)CC[C@]314)c1cccc(C(=O)c2ccccc2)c1 (stereo partly shown) sits at 60% or higher.
1.0

Can CN1CC[C@]23c4c5ccc(O)c4O[C@H]2C(OC(=O)c2ccccc2O)=CC[C@@]3(O)[C@H]1C5 be said to have %-Cmax at or above 60%?
1.0

Quick check, %-Cmax >= 60%? CC(C(=O)OC1=CCC2(O)C3Cc4ccc(O)c5c4C2(CCN3C)C1O5)c1cccc(C(=O)c2ccccc2)c1 (stereo not shown)
0.0

Check the entry COc1cc(C(=O)OC2=CC[C@@]3(O)[C@H]4Cc5ccc(O)c6c5[C@@]3(CCN4C)[C@H]2O6)ccc1O [6-Vanillate-OM] : does %-Cmax equal or exceed 60%?
1.0
